The measurements presented in this section are drawn from ChEMBL document CHEMBL1201862.

Could you please report measured AC50 for the items listed next?
molecular target: UniProtKB P08684; details: Potency;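 further: confirmatory qHTS run detecting inhibitors and substrates of CYP3A4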
Sequence (P08684 whole entry): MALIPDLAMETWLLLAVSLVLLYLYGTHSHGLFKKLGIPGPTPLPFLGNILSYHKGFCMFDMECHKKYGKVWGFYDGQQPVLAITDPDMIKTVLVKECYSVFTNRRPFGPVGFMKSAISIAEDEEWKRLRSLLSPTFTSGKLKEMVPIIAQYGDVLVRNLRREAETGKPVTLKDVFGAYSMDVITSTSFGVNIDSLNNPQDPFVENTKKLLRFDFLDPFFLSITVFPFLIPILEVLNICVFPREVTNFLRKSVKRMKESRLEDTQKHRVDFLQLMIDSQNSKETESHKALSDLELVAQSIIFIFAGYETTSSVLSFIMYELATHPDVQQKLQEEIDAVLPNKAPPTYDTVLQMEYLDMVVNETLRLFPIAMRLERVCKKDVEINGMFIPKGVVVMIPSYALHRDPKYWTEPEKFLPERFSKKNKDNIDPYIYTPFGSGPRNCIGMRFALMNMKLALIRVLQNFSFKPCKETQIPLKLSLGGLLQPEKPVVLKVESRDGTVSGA

Field: example entries. Status: answers known.
**Query** # query: AC50 of entry "COc1cc(-c2cc(=O)c3c(O)c(OC)c(OC)c(OC)c3o2)cc(OC)c1OC"
**Result** 3.16 µM (inconclusive)

**Query** # query: AC50 of entry CCN1C[C@@]2(COC(=O)c3ccccc3N3C(=O)CC(C)C3=O)CC[C@H](OC)[C@]34C5C[C@H]6[C@@H](OC)C[C@@](O)(C5[C@H]6OC)C(O)(C13)[C@@H](OC)C24 (some centres not stated)
**Result** 20 µM (inconclusive)

**Query** # query: AC50 of entry CC1(C)C(O)CC(=O)[C@]2(C)C1CC(=O)[C@]1(C)C2CC[C@@]2(C)C(c3ccoc3)OC(=O)C3O[C@@]321 (some centres not stated)
**Result** 10 µM (inconclusive)

**Query** # query: AC50 of entry "CCCn1c(C)nc2c(NCCN3CCOCC3)nc(C)nc21"
**Result** 20 µM (inconclusive)

# per-item lookup of AC50; items listed below
1. CCC(=O)OC1CCC2C3CCc4cc(O)ccc4C3CC[C@]12C (some centres not stated)
2. COC(=O)/C(=C1\OC(=O)C(c2ccccc2)C1=O)c1ccccc1 (configuration not stated)
3. CC1(C)OC2CC3C4CC(F)C5=CC(=O)C=CC5(C)C4C(O)CC3(C)[C@]2(C(=O)CO)O1 (some centres not stated)

**Result**
1. 39.8 µM (inconclusive)
2. 39.8 µM (inconclusive)
3. 39.8 µM (inconclusive)
